B1: TPR 5TU (parent)
chain: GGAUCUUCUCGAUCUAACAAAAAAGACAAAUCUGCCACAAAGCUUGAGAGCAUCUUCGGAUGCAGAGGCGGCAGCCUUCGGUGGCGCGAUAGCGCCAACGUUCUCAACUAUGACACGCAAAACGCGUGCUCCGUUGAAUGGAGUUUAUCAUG

Variants of: B1
MEASUREMENT_DESCRIPTION: polymerase ribozyme fitness, log enrichment relative to wild type (log ratio); higher = more active; in vitro selection for triplet polymerase activity
Fewer inactive variants are shown than the library holds.
ASSAY_METRIC: polymerase ribozyme fitness (log ratio)
Give a plain numeric answer without units written out.

Dear colleague, I am looking for the recorded polymerase ribozyme fitness (log ratio) of the following variant: A24G
-1.75

Dear colleague, I am looking for the recorded polymerase ribozyme fitness (log ratio) of the following variant: U4A C132G U139G
-3.71

Dear colleague, I am looking for the recorded polymerase ribozyme fitness (log ratio) of the following variant: G80U C125A
-1.04
